tested on: Plasmodium falciparum NF54/iGP1_RE9H ulg8 stage V gametocytes; assay: gametocyte viability (luciferase signal relative to DMSO control) (% of DMSO control); higher = less gametocytocidal activity, active = 50 or less; conditions: concentration: 10 µM; exposure time: 72 h
measured.property: gametocyte viability
Enter the number alone.

Example entries and their recorded answers appear below.
compound	reading
Cc1ccc(NC(=O)c2ccc(CN3CCN(C)CC3)cc2)cc1Nc1nc(-c2cccnc2)cs1 [Masitinib (AB1010)]	80.3
Cn1cc(-c2ccc3nnc(Sc4ccc5ncccc5c4)n3n2)cn1	88.7

Given the entry CCCCCCCCCCCCCCCC(=O)OC(CC(=O)[O-])C[N+](C)(C)C (racemic) [Palmitoyl-DL-carnitine] , report its measured gametocyte viability. 108

And then O=C1Cc2c([nH]c3ccc(Br)cc23)-c2ccccc2N1 [Kenpaullone] , what is it? 16.3

And then O=C(Cc1ccc(-c2ccc(OCCN3CCOCC3)cc2)cn1)NCc1ccccc1 , what is it? 113

And then O=C(c1ccc(/C=C/c2n[nH]c3ccccc23)cc1)N1CCNCC1 , what is it? 93.7

And then O=P(O)(O)C(O)c1ccc2ccccc2c1 (stereo unspecified) [Hydroxy-2-naphthalenylmethylphosphonic acid] , what is it? 90.5

And then COc1cc(C=C(C#N)C(N)=O)cc(CSc2nc3ccccc3s2)c1O , what is it? 113

And then Cc1[nH]c(/C=C2\C(=O)Nc3ccccc32)c(C)c1CCC(=O)O , what is it? 105
